Data credit: patent US20200031927A1

# TARGET OF ASSAY: T1, soluble KIR3DL1*007/015-Fc (human, UniProt P43629 22-338)
# T1 construct: also called KIR3DL1 allele 007/015; CD158e allele 007/015; not shown: Fc domain
# T1 sequence (P43629 other isoform, or with tags, fused parts or gaps): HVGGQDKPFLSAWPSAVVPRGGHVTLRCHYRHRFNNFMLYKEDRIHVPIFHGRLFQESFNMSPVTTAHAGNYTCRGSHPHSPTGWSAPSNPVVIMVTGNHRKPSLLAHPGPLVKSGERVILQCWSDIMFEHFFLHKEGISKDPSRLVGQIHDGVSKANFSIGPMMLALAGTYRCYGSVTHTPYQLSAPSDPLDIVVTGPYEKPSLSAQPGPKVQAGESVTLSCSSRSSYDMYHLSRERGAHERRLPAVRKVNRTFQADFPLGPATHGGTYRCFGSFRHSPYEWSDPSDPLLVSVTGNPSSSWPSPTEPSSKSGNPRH
# PROTOCOL NOTES: BLI (ForteBio QK), hIgG1
READOUT LABEL: Kd (nM)

• ET160-61 (antibody, human IgG1, V domains shown, Tested as human IgG1 (hIgG1), lambda light chain) VH: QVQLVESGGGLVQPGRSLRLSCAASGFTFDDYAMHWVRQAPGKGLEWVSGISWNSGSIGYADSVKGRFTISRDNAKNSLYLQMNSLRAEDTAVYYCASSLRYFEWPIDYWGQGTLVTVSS VL: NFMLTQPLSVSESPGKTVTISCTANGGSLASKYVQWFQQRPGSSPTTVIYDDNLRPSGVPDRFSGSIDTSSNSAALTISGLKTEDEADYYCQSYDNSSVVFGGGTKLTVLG = 4.1
